tested on: Plasmodium falciparum; assay: NOVARTIS: Inhibition of Plasmodium falciparum W2 (drug-resistant) proliferation in erythrocyte-based infection assay; assay type: functional, organism-based; details: read-out: EC50
pEC50: −log10 of the molar value. Structures can show the parent of a compound that is named as a salt.
measurement kind: pEC50

// worked examples, pEC50 included
| compound | measurement kind | reported result |
| --- | --- | --- |
| CCOc1ccc2nccc([C@@H](O)[C@@H]3C[C@@H]4CCN3C[C@@H]4CC)c2c1 [ETHYLHYDROCUPREINE HYDROCHLORIDE] | pEC50 | > 8.46 |
| CCCCN1C(=Cc2cccc[n+]2C)Sc2cc(NC(C)=O)ccc21 | pEC50 | < 5.90 |

Continue with the next compound.
INPUT: Give me measured pEC50, please, for this compound: CCN1C(=Cc2sc3ccccc3[n+]2C)C=Cc2ccc(C)cc21
OUTPUT: < 5.85
